target: BRD4(BD1) (Homo sapiens); experiment: HTRF assay, BRD4(BD1)/histone peptide interaction; assay type: binding; set-up: made in house; details: HTRF; triplicates; NA = IC50 > maximal concentration of compound used
pIC50: −log10 of the molar value.
measurement.name: pIC50

Answered examples (5):
{"compound": "CCn1cnc2c1c(=O)[nH]c(=O)n2Cc1ccc(CNS(=O)(=O)CCN2CCOCC2)cc1 [Compound 22a]", "data.value": 5.35}
{"compound": "O=C1CCCc2cc(S(=O)(=O)NCC3CCC(C(=O)NCc4ccccn4)CC3)ccc2N1 (stereo not drawn)", "data.value": 4.54}
{"compound": "CCn1cnc2c1c(=O)[nH]c(=O)n2Cc1ccc(CNS(=O)(=O)c2ccc(N3CCOCC3)cc2)cc1 [Compound 45a]", "data.value": 7.06}
{"compound": "CCn1cnc2c1c(=O)[nH]c(=O)n2Cc1ccc(CNS(=O)(=O)c2ccc3c(c2)CCCC(=O)N3)c2ccccc12 [Compound 31c]", "data.value": 5.46}
{"compound": "CCn1cnc2c1c(=O)[nH]c(=O)n2Cc1ccc(CNC(=O)[C@H]2CC[C@H](CNC(=O)OC(C)(C)C)CC2)cc1 [Compound 38b]", "data.value": 5.09}

[A] CCn1cnc2c1c(=O)[nH]c(=O)n2Cc1ccc(CNS(=O)(=O)c2ccc3oncc3c2)cc1 [Compound 26a]
[B] CCn1cnc2c1c(=O)[nH]c(=O)n2Cc1ccc(CNC(=O)C2CCCC(N)C2)cc1 (stereo not drawn) [Compound 42b]
[C] CCn1cnc2c1c(=O)[nH]c(=O)n2Cc1ccc(CNS(=O)(=O)c2ccc3c(c2)CCN3C(C)=O)cc1 [Compound 26c]
(Q) List these items ordered by pIC50, big to small. List labels; respect the requested ordering.
(A) C, A, B

* * *

biological target: BRD4(BD1) (Homo sapiens, UniProt O60885); assay: HTRF assay, BRD4(BD1)/histone peptide interaction; format: binding; design: made in house; conditions: selectivity Brd4(BD1) vs Brd4(BD2), HTRF IC50
measurement.name: Ratio 4-1 vs 4-2

Answered examples (4):
{"molecule": "CCn1cnc2c1c(=O)[nH]c(=O)n2Cc1ccc(CNS(=O)(=O)c2ccc(OC3CCOCC3)cc2)cc1 [Compound 43b]", "data.value": 34}
{"molecule": "CCn1cnc2c1c(=O)[nH]c(=O)n2Cc1ccc(CNS(=O)(=O)c2ccc(N3CCOCC3)cc2)cc1 [Compound 45a]", "data.value": 31}
{"molecule": "CCn1cnc2c1c(=O)[nH]c(=O)n2Cc1ccc(CNS(=O)(=O)c2ccc(Oc3ccccc3)cc2)cc1 [Compound 30c]", "data.value": 9}
{"molecule": "CCn1cnc2c1c(=O)[nH]c(=O)n2Cc1ccc(CNS(=O)(=O)c2ccc(C(=O)N3CCOCC3)cc2)cc1 [Compound 44b]", "data.value": 34}

[a] CCn1cnc2c1c(=O)[nH]c(=O)n2Cc1ccc(CNS(=O)(=O)c2cc3ccccc3s2)cc1 [Compound 25b]
[b] CCn1cnc2c1c(=O)[nH]c(=O)n2Cc1ccc(CNS(=O)(=O)c2ccc3c(c2)CCCC(=O)N3)cc1 [Compound 27c]
[c] CCn1cnc2c1c(=O)[nH]c(=O)n2Cc1ccc(CNS(=O)(=O)c2ccc(-c3ccccc3)cc2)cc1 [Compound 29b]
[d] O=C1CCCc2cc(S(=O)(=O)C3CCC(C(=O)NCCc4ccccn4)CC3)ccc2N1 (stereo not drawn)
(Q) Which order do these items take when sorted by rising Ratio 4-1 vs 4-2? List them. List labels; respect the requested ordering.
(A) d, b, a, c
(d: 2, b: 10, a: 16, c: 39)

[P] CCn1cnc2c1c(=O)[nH]c(=O)n2Cc1ccc(CNS(=O)(=O)c2ccc(OC3CCCCC3)cc2)cc1 [Compound 43a]
[Q] CCn1cnc2c1c(=O)[nH]c(=O)n2Cc1ccc(CNS(=O)(=O)c2ccc3c(c2)CCC(=O)N3)cc1 [Compound 27b]
(Q) Of P versus Q , which is the one with smaller reported Ratio 4-1 vs 4-2? Indicate your choice by writing its label.
(A) Q
(Q: 11, P: 22)

* * *

target: Brd2(BD2) (Homo sapiens); construct: GST tagged bromodomain proteins were purchased from BPS Bioscience; purchased BPS Bioscience; assay: HTRF BET selectivity profile, Brd2(BD2); type: binding; details: read-out: Brd2(BD2) IC50
Sequence (P25440 344-453 limits assumed): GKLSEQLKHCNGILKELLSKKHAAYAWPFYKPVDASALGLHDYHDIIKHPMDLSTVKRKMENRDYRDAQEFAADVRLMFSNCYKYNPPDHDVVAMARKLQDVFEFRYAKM
measurement.name: IC50 (nM)

{"compound": "CCn1cnc2c1c(=O)[nH]c(=O)n2Cc1ccc(CNS(=O)(=O)c2cccc(-c3ccccc3)c2)cc1 [Compound 29c]", "data.value": 14700}
{"compound": "CCn1cnc2c1c(=O)[nH]c(=O)n2Cc1ccc(CNS(=O)(=O)c2ccc(OC3CCOCC3)cc2)cc1 [Compound 43b]", "data.value": 2400}
{"compound": "CCn1cnc2c1c(=O)[nH]c(=O)n2Cc1ccc(CNS(=O)(=O)c2ccc(Oc3ccccc3)cc2)cc1 [Compound 30c]", "data.value": 2490}

[P] CCn1cnc2c1c(=O)[nH]c(=O)n2Cc1ccc(CNS(=O)(=O)c2ccc(OC3CCCCC3)cc2)cc1 [Compound 43a]
[Q] CCn1cnc2c1c(=O)[nH]c(=O)n2Cc1ccc(CNS(=O)(=O)c2cc3ccccc3s2)cc1 [Compound 25b]
[R] CCn1cnc2c1c(=O)[nH]c(=O)n2Cc1ccc(CNS(=O)(=O)c2ccc(N3CCOCC3)cc2)cc1 [Compound 45a]
[S] CCCCc1c(C)nc2nc(SCc3nc4c(c(=O)[nH]c(=O)n4Cc4ccc(CNS(=O)(=O)c5ccc6c(c5)CCCC(=O)N6)cc4)n3CC)nn2c1C [Compound 32c]
(Q) List these items ordered by IC50, big to small. List labels; respect the requested ordering.
(A) Q, S, P, R
(Q: 10500 nM, S: 3360 nM, P: 2260 nM, R: 1070 nM)

* * *

Test system: Molm14 cells
Assay: Cell Titer-Glo cell viability assay, Molm14
Format: cell-based
Details: Homo sapiens, MOLM-14, 72 h, mean of three experiments, NA = IC50 > maximal concentration used
Procedure: The human leukemia cell line Jurkat (ATCC® TIB-152) and Molm14 was maintained in RPMI-1640 medium or MEMα, respectively and supplemented both with 10% FBS at 37° C. and 5% CO2. In antiproliferative assays, compounds were assayed for their growth inhibiting activity towards the described cancer cell lines using the Cell Titer-Glo Luminescent Cell Viability Assay as described by the manufacturer (Promega Corporation). […]
measurement.name: IC50 (µM)

{"compound": "CCn1cnc2c1c(=O)[nH]c(=O)n2Cc1ccc(CNS(=O)(=O)c2ccc(-c3cc(C)n[nH]3)s2)cc1 [Compound 25a]", "measurement.name": "IC50", "data.value": 9.9}
{"compound": "CCn1cnc2c1c(=O)[nH]c(=O)n2Cc1cc(OC)c(CNS(=O)(=O)c2ccc3c(c2)CCCC(=O)N3)cc1OC [Compound 32a]", "measurement.name": "IC50", "data.value": 30.2}
{"compound": "CCn1cnc2c1c(=O)[nH]c(=O)n2Cc1ccc(CNS(=O)(=O)c2cccc(-c3ccccc3)c2)cc1 [Compound 29c]", "measurement.name": "IC50", "data.value": 8.9}
{"compound": "CCn1cnc2c1c(=O)[nH]c(=O)n2Cc1ccc(CNS(=O)(=O)c2ccc3scnc3c2)cc1 [Compound 25c]", "measurement.name": "IC50", "data.value": 14.8}
{"compound": "CCn1cnc2c1c(=O)[nH]c(=O)n2Cc1ccc(CNS(=O)(=O)c2ccc(Oc3ccccc3)cc2)cc1 [Compound 30c]", "measurement.name": "IC50", "data.value": 9.2}
{"compound": "CCn1cnc2c1c(=O)[nH]c(=O)n2Cc1ccc(CNS(=O)(=O)c2ccc(Oc3cncc(C)n3)cc2)cc1 [Compound 42c]", "measurement.name": "IC50", "data.value": 12.2}
{"compound": "CCn1cnc2c1c(=O)[nH]c(=O)n2Cc1ccc(CNS(=O)(=O)c2ccn(-c3ccccc3)n2)cc1 [Compound 24b]", "measurement.name": "IC50", "data.value": 10.2}
{"compound": "CCn1cnc2c1c(=O)[nH]c(=O)n2Cc1ccc(CNS(=O)(=O)c2ccc(Oc3ccc(C(F)(F)F)cc3)cc2)cc1 [Compound 44c]", "measurement.name": "IC50", "data.value": 9.3}
{"compound": "CCn1cnc2c1c(=O)[nH]c(=O)n2Cc1ccc(CNS(=O)(=O)c2cc3ccccc3s2)cc1 [Compound 25b]", "measurement.name": "IC50", "data.value": 11.1}

[a] CCn1cnc2c1c(=O)[nH]c(=O)n2Cc1ccc(CNS(=O)(=O)c2ccc(-c3ccccc3)cc2)cc1 [Compound 29b]
[b] CCn1cnc2c1c(=O)[nH]c(=O)n2Cc1ccc(CNS(=O)(=O)c2ccc(OC3CCOCC3)c(F)c2)cc1 [Compound 43c]
[c] CCn1cnc2c1c(=O)[nH]c(=O)n2Cc1ccc(CNS(=O)(=O)c2ccc(C(=O)N3CCOCC3)cc2)cc1 [Compound 44b]
[d] CCn1cnc2c1c(=O)[nH]c(=O)n2Cc1ccc(CNS(=O)(=O)c2ccc(OCc3ccccc3)cc2)cc1 [Compound 31a]
(Q) Which order do these items take when sorted by rising IC50? List them. List labels; respect the requested ordering.
(A) d, b, a, c

The measurements presented in this section are drawn from patent US11180510B2.
